Data credit: ChEMBL document CHEMBL3102759

# experiment.notes: Metabolic stability in rat liver microsomes assessed as compound remaining after 30 mins
# Assay type: ADME
# experimental.conditions: read-out: Stability
measurement.label: remaining at 0.5 h (%)

Worked cases, answers included:
                         chemical_structure  unit_of_measure  test_result
0  CCCCN1CCN(c2nc(C)c(C(=O)NCc3cccnc3)s2)C1=O                %           67
1  Cc1nc(N2CCN(Cc3ccccc3)C2=O)sc1C(=O)NCc1cccnc1                %           46

I = Cc1nc(N2CCN(CC3CC3)C2=O)sc1C(=O)NCc1cccnc1
II = Cc1nc(N2CCN(Cc3ccc(F)cc3)C2=O)sc1C(=O)NCc1ncco1
**Query** Of I and II , whose reported remaining at 0.5 h is numerically smaller? # respond with the chosen item's label
**Result** I
(I: 55%, II: 88%)

1 = Cc1nc(N2CCN(CC3CCCCC3)C2=O)sc1C(=O)NCc1cccnc1
2 = Cc1nc(N2CCN(Cc3ccc(F)cc3)C2=O)sc1C(N)=O
3 = Cc1nc(N2CCN(Cc3ccccc3)C2=O)sc1C(=O)NCc1cccc(F)c1
**Query** Please put the entries in order of rising remaining at 0.5 h. # respond with the labels, arranged in the requested order
**Result** 3, 1, 2

I = Cc1nc(N2CCN(Cc3ccccc3)C2=O)sc1C(=O)NCc1ccccn1
II = Cc1nc(N2CCN(CCCc3ccccc3)C2=O)sc1C(=O)NCc1cccnc1
III = Cc1nc(N2CCN(Cc3ccccc3)C2=O)sc1C(=O)NCc1ccccc1
**Query** List these items ordered by remaining at 0.5 h, big to small. # respond with the labels, arranged in the requested order
**Result** I, III, II
(I: 57%, III: 10%, II: 4%)
